Test system: DOHH2 cells
Experiment: Cell proliferation inhibition in vitro, DOHH2 cells by CTG assay
Type: cell-based
Settings: Homo sapiens, DOHH-2, 72 hours, read-out: Inhibitions of cell activities IC50 (nM) DOHH2

{"columns": ["COMPOUND", "SYSTEM_NAME", "OUTPUT_UNIT", "QUALIFIER_OPERATOR", "IC50"],
 "data": [
  ["C=CC(=O)N1C2CN[C@@H](C2)C1c1nc(-c2ccc(C(C)(O)c3ccccc3)cc2)c2c(N)nccn12 (stereo partly shown) [Example 86]", "DOHH2 cells", "nM", "=", 917],
  ["C=CC(=O)N1C2C[C@@H](C1c1nc(-c3ccc(C(=O)Nc4ccccn4)cc3)c3c(N)nccn13)N(C(C)C)C2 (stereo partly shown) [Example 16]", "DOHH2 cells", "nM", ">", 1000],
  ["C=CC(=O)N1C2CCC1(c1nc(-c3ccc(Oc4ccccc4)cc3)c3c(N)nccn13)COC2 (stereo not shown) [Example 104]", "DOHH2 cells", "nM", "=", 718],
  ["C=CC(=O)N1C2CN[C@@H](C2)C1c1nc(-c2ccc(C(=O)Nc3cc(C(F)(F)F)ccn3)cc2)c2c(N)nccn12 (stereo partly shown) [Example 52]", "DOHH2 cells", "nM", "=", 174],
  ["C=CC(=O)N1C2C[C@@H](C1c1nc(-c3ccc(Oc4ccccc4)cc3)c3c(N)nccn13)N(C(C)C)C2 (stereo partly shown) [Example 109]", "DOHH2 cells", "nM", "=", 184],
  ["CN(C)C/C=C/C(=O)N1CC2(CC2)C[C@H]1c1nc(-c2ccc(C(=O)Nc3ccccn3)cc2)c2c(N)nccn12 [Example 112]", "DOHH2 cells", "nM", "=", 902],
  ["C=CC(=O)N1CC2CCCC2C1c1nc(-c2ccc(Oc3ccccc3)cc2)c2c(N)nccn12 (stereo not shown) [Example 96]", "DOHH2 cells", "nM", "=", 200]
]}

* * *

For reference, IC50 measured on BTK kinase (Homo sapiens (Human)):
READOUT_LABEL: IC50 (nM)

{"columns": ["COMPOUND", "OUTPUT_UNIT", "VALUE_MEASURED"],
 "data": [
  ["C=CC(=O)NC12CC3CC(C1)CC(c1nc(-c4ccc(C(=O)Nc5ccccn5)cc4)c4c(N)nccn14)(C3)C2", "nM", 124],
  ["C=CC(=O)N1C2C[C@@H](C1c1nc(-c3ccc(Oc4ccccc4)cc3)c3c(N)nccn13)N(C)C2 (stereo partly shown)", "nM", 72],
  ["C=CC(=O)N1CC2(CC2)C[C@H]1c1nc(-c2ccc(C(=O)Nc3ccccn3)cc2)c2c(N)nccn12", "nM", 24],
  ["C=CC(=O)N1CCC2(CC2c2nc(-c3ccc(C(=O)Nc4ccccn4)cc3)c3c(N)nccn23)C1 (stereo not shown)", "nM", 724]
]}

* * *

Test system: DOHH2 cells
Assay: Cell proliferation inhibition in vitro, DOHH2 cells by CTG assay
Type: cell-based
Details: Homo sapiens, DOHH-2, 72 hours, read-out: Inhibitions of cell activities IC50 (nM) DOHH2
A collection of molecules and their measured IC50

{"columns": ["MOLECULE", "SYSTEM_NAME", "QUALIFIER_OPERATOR", "IC50 / nM"],
 "data": [
  ["CC#CC(=O)N1CC2(CC2)C[C@H]1c1nc(-c2ccc(Oc3ccccc3)cc2)c2c(N)nccn12", "DOHH2 cells", "=", 712],
  ["C=CC(=O)N1C2CN[C@@H](C2)C1c1nc(-c2ccc(C(=O)Nc3ccccn3)cc2)c2c(N)nccn12 (some centres unmarked)", "DOHH2 cells", "=", 138],
  ["C=CC(=O)N1[C@H]2CC[C@@H]1[C@@H](c1nc(-c3ccc(C(=O)Nc4ccccn4)cc3)c3c(N)nccn13)C2", "DOHH2 cells", "=", 712],
  ["C=CC(=O)N1C2C[C@@H](C1c1nc(-c3ccc(C(=O)Nc4ccccn4)cc3)c3c(N)nccn13)N(C)C2 (some centres unmarked)", "DOHH2 cells", "=", 716],
  ["CC#CC(=O)N1[C@@H]2CC[C@@H](C2)[C@H]1c1nc(-c2ccc(C(=O)Nc3ccccn3)cc2)c2c(N)nccn12", "DOHH2 cells", ">", 1000],
  ["C=CC(=O)N1CC2(CC2)C[C@H]1c1nc(-c2ccc(C(=O)Nc3ccccn3)cc2)c2c(N)nccn12", "DOHH2 cells", "=", 917],
  ["C=CC(=O)N1C2C[C@@H](C1c1nc(-c3ccc(Oc4ccccc4)cc3)c3c(N)nccn13)N(C(C)=O)C2 (some centres unmarked)", "DOHH2 cells", "=", 198],
  ["C=CC(=O)N1C2C[C@@H](C1c1nc(-c3ccc(C(=O)Nc4cc(C(F)(F)F)ccn4)cc3)c3c(N)nccn13)N(C(C)=O)C2 (some centres unmarked)", "DOHH2 cells", "=", 74],
  ["CC#CC(=O)N1C2CC[C@@H](C2)C1c1nc(-c2ccc(C(=O)Nc3cc(C(F)(F)F)ccn3)cc2)c2c(N)nccn12 (some centres unmarked)", "DOHH2 cells", "=", 172],
  ["CC#CC(=O)N1C2CCC1(c1nc(-c3ccc(C(=O)Nc4cc(C(F)(F)F)ccn4)cc3)c3c(N)nccn13)COC2 (centres unmarked)", "DOHH2 cells", "=", 436],
  ["C=CC(=O)N1CC2(CC2)C[C@H]1c1nc(-c2ccc(C(C)(O)c3ccccc3)cc2)c2c(N)nccn12 (some centres unmarked)", "DOHH2 cells", "=", 72],
  ["CC#CC(=O)N1CC2CCCC2C1c1nc(-c2ccc(C(=O)Nc3cc(C(F)(F)F)ccn3)cc2)c2c(N)nccn12 (centres unmarked)", "DOHH2 cells", "=", 217],
  ["CC#CC(=O)N1CC2CC1(c1nc(-c3ccc(C(=O)Nc4ccccn4)cc3)c3c(N)nccn13)CO2 (centres unmarked)", "DOHH2 cells", ">", 1000],
  ["C=CC(=O)N1CC2(CC2)C[C@H]1c1nc(-c2ccccc2C(=O)Nc2ccccn2)c2c(N)nccn12", "DOHH2 cells", ">", 1000]
]}
